- Tested on: PRC2 (EZH2-Y641F) (Homo sapiens, UniProt Q15910, Y641F)
- Sequence (Q15910 whole entry Y641F): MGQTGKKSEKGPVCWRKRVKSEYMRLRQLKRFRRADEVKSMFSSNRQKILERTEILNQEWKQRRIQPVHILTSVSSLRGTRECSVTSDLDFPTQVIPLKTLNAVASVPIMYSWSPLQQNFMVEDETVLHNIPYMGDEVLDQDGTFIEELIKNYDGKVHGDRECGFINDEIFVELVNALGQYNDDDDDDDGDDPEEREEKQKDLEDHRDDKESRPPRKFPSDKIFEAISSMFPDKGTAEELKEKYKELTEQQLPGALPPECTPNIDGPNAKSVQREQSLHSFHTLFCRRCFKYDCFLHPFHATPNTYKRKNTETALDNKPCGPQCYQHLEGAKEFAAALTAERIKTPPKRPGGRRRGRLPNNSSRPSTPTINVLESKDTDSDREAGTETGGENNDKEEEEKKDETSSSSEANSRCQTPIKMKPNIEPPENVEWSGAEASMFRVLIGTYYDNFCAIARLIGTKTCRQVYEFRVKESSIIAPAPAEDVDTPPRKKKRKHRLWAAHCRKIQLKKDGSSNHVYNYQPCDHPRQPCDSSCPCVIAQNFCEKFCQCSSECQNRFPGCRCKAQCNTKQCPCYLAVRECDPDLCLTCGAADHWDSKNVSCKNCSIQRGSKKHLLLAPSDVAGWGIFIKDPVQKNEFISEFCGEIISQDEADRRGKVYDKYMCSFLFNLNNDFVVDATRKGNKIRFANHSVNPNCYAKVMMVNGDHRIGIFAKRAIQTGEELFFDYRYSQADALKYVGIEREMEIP
- Sequence (O75530 whole entry partner): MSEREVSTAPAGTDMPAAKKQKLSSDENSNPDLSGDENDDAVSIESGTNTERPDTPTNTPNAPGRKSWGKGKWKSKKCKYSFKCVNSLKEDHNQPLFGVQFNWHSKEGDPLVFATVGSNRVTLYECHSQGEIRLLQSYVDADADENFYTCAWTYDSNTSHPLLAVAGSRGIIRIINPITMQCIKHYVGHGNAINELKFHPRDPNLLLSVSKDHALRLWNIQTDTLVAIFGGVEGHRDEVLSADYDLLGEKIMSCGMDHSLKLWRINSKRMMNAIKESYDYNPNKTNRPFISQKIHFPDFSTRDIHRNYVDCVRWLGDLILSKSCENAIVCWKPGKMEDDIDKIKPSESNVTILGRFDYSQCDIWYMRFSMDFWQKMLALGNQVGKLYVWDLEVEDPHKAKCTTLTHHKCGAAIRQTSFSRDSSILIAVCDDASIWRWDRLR
- Sequence (Q15022 whole entry partner): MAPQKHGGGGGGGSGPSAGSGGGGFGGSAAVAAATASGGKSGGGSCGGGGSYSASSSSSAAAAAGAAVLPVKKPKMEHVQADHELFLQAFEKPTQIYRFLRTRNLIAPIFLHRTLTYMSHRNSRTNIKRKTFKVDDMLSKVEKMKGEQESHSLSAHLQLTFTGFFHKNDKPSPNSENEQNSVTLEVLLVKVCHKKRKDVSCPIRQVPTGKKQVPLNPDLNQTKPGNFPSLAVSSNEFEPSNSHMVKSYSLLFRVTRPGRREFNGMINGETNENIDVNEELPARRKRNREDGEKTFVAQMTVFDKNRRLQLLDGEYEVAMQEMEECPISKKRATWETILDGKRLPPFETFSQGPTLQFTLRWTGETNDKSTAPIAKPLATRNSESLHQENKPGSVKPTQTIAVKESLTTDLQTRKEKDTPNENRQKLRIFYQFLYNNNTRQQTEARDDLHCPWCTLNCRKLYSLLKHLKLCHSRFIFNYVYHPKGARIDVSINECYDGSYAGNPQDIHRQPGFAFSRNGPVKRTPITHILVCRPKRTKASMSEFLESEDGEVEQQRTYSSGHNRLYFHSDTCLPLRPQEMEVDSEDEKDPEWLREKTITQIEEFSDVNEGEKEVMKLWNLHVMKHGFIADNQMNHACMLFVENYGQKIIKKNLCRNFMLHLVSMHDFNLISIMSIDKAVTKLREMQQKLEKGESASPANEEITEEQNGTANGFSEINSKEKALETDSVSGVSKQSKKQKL
- Sequence (Q09028 whole entry partner): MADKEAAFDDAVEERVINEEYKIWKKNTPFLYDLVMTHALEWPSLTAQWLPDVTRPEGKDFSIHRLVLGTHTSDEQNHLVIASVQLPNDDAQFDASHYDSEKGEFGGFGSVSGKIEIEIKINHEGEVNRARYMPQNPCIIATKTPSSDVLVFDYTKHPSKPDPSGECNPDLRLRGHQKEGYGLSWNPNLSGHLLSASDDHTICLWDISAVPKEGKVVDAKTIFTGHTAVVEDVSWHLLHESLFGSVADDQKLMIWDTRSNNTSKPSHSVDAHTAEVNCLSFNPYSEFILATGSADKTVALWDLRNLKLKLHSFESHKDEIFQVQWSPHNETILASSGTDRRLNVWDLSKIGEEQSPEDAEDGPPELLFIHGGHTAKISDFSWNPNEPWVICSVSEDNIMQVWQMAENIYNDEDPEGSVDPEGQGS
- Sequence (Q6ZN18 whole entry partner): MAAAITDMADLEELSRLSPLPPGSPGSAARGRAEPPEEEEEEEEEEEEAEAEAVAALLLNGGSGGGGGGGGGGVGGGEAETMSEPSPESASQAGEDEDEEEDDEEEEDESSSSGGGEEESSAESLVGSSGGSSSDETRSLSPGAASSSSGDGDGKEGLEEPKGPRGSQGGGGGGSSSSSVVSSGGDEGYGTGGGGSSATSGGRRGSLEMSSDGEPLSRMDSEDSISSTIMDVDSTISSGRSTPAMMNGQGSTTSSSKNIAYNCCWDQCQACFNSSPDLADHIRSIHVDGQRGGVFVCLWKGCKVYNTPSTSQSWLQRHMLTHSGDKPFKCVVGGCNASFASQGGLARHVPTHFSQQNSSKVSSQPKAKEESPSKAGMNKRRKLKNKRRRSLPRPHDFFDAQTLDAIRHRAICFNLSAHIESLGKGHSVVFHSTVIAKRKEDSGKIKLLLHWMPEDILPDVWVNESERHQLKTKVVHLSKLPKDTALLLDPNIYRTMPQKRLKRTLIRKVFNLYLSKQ
- Measurement notes: In vitro methyltransferase assay
- Procedure: Recombinant PRC2 (EZH2-Y641F) was purchased from Active motif, S-adenosyl-methionin chloride (SAM) and Poly-L-lysine (PLL) were purchased from Sigma-Aldrich, H3(1-50)K27me1 peptide was purchased from Cisbio. […] After 3 hours enzyme reaction at RT, the premixed detection buffer (PLL, Europium antibody and Ulight) is added, and react for 1 h at RT, then read fluorescence on Tecan infinite pro. IC50s are counted by XLfit using a four-parameter model.
Measurement type: pIC50
Value format note: pIC50 is -log10 of concentration (mol/L); just state the number.

pIC50 for CCN(c1cc(C(=O)NCc2c(C)cc(C)[nH]c2=O)c(C)c2c1cnn2C)C1CCC(N(C)C)CC1 (centres unmarked) [D2] is 5.32

pIC50 for CCc1c(C(=O)NCc2c(C)cc(C)[nH]c2=O)cc2c(cnn2C)c1N(CC)[C@H]1CC[C@H](N2CC(OC)C2)CC1 [Free base] is 7.92

----------
- Measurement notes: Dynamic solubility experiment
- Format: physicochemical
- Conditions: simulated gastric fluid, thermodynamic from solid; 0.1M HCl, room temperature, 24 h
Measurement type: solubility at 24 h

solubility at 24 h for CCc1c(C(=O)NCc2c(C)cc(C)[nH]c2=O)cc2c(cnn2C)c1N(CC)[C@H]1CC[C@H](N2CC(OC)C2)CC1 [Free base] is > 50.1 mg/mL

----------
- Measurement notes: Dynamic solubility experiment
- Assay type: physicochemical
- Conditions: water, thermodynamic from solid; H2O, room temperature, 24 h
Measurement type: solubility at 24 h (µg/mL)
Numbers only; they are read as µg/mL.

solubility at 24 h for CCc1c(C(=O)NCc2c(C)cc(C)[nH]c2=O)cc2c(cnn2C)c1N(CC)[C@H]1CC[C@H](N2CC(OC)C2)CC1 [Free base] is 60

----------
- Measurement notes: Dynamic solubility experiment
- Format: physicochemical
- Conditions: aqueous buffer, thermodynamic from solid; pH 6.8 buffer, room temperature, 24 h
Measurement type: solubility at 24 h (µg/mL)
Numbers only; they are read as µg/mL.

solubility at 24 h for CCc1c(C(=O)NCc2c(C)cc(C)[nH]c2=O)cc2c(cnn2C)c1N(CC)[C@H]1CC[C@H](N2CC(OC)C2)CC1 [Free base] is 840

----------
- Tested on: PRC2 (EZH2-Y641F) (Homo sapiens, UniProt Q15910, Y641F)
- Measurement notes: In vitro methyltransferase assay
Measurement type: IC50

IC50 for CCN(c1cc(C(=O)NCc2c(C)cc(C)[nH]c2=O)c(C)c2c1cnn2C)C1CCC(N2CC(OC)C2)CC1 (stereo not drawn) [D3] is > 10 µM

IC50 for CCN(c1cc(C(=O)NCc2c(C)cc(C)[nH]c2=O)c(C)c2c1cnn2C)C1CCOCC1 [D1] is > 10 µM

IC50 for CCN(c1cc(C(=O)NCc2c(C)cc(C)[nH]c2=O)c(C)c2c1cnn2C)C1CCN(CC(F)(F)F)CC1 [D4] is > 10 µM
